Numbers sourced from ChEMBL document CHEMBL1201862.

Test system: SNB-19
assay.method.text: NCI tumour cell line growth inhibition, 48 h
Active and inactive are the calls of the source. Cut-off read from the data, not from the text of the source: active = GI50 up to about 1.1 µM and inactive = higher.
List of GI50 values.
parameter: GI50

COCCN(C(=O)c1ccccc1)C1CCC(=O)c2[nH]c3ccccc3c21 (stereo unspecified)    11.2 µM (inactive)
Cc1nc(N)sc1C(=O)/C=C/c1ccc(/C=C/C(=O)c2sc(NC(=O)CCCCCCCCC(=O)Nc3nc(C)c(C(=O)/C=C/c4ccc(/C=C/C(=O)c5sc(N)nc5C)cc4)s3)nc2C)cc1    > 100 µM (inactive)
COC(=O)c1ccc(NCc2cc(OC)ccc2OC)cc1    > 100 µM (inactive)
CCOC(=O)c1ccc(-n2nnc(C(N)=O)c2O)cc1    > 100 µM (inactive)
CCOC(CI)O[C@@H]1C=C[C@H](OC(C)=O)C1 (stereo partly specified)    > 100 µM (inactive)
COc1cc(N)c2[nH]c3c(C)ccc(C)c3c2c1    > 100 µM (inactive)
CCOC(=O)C(NO)C(Sc1ccccc1)c1ccc(OC)cc1 (stereo unspecified)    > 100 µM (inactive)
CC(C)(C)CC(C)(C)c1ccc(OCCOCC[N+](C)(C)Cc2ccccc2)cc1 [BENZETHONIUM CHLORIDE]    3.1 µM (inactive)
Clc1ccc(-c2cn3c(nc4ccccc43)c(-c3ccccc3)n2)cc1    13.9 µM (inactive)
O=C(O)CC12CC3CC(CC(O)(C3)C1)C2    > 100 µM (inactive)
CC(=O)/C(=C\C1=CCCO1)C(=O)Nc1ccccc1C    > 100 µM (inactive)
CCOc1cc2cnc3c4cc(OC)c(OC)cc4ccc3c2cc1OC    19.4 µM (inactive)
CC(C(=O)n1ccnc1)N1c2ccccc2Sc2ccccc21 (stereo unspecified)    > 100 µM (inactive)
COC(=O)C(NC(=O)OC(C)(C)C)P(=O)(OC)OC (stereo unspecified)    > 100 µM (inactive)
Cc1ccc(NC(=O)CCC(=O)C2CC(=O)CCC2=O)cc1C (stereo unspecified)    > 100 µM (inactive)
C/C(=N\Nc1cc(CN2CCCC2)c(-c2ccc(Cl)cc2)nn1)C(=O)O    > 100 µM (inactive)

----------
Test system: CCRF-CEM
assay.method.text: NCI tumour cell line growth inhibition, 48 h
The source made the active and inactive calls. No stated cut-off is given here; in the data, active = GI50 up to about 1.1 µM and inactive = higher.
Outcomes: yes (active), no (inactive)

CC(=O)OC1C(=O)C(O)C(C)OC1O[C@@H]1C[C@@]2(C)[C@@H]3CC=C4[C@@H](C[C@H](O)C(=O)C4(C)C)[C@]3(C)C(=O)C[C@]2(C)[C@H]1[C@@](C)(O)C(=O)/C=C/C(C)(C)O (some centres undefined)    yes
COc1cc2cc(C(=O)N3C[C@H](CCl)c4c3cc(N)c3ccccc43)[nH]c2c(OC)c1OC    yes
CC1(C)CNC(=O)C2(CCCO2)CNC(C)(C)CNC(=O)C2(CCCO2)CN1 (centres undefined)    no
O=C(Cn1c(C(=O)/C=C/c2ccc(Cl)c(Cl)c2)nc2ccccc21)c1ccccc1    no

----------
Test system: IGROV-1
assay.method.text: NCI tumour cell line growth inhibition, 48 h
Activity calls are given as the source filed them. Rule as the data show it: active = GI50 up to about 1.1 µM and inactive = higher.
Outcomes: active, inactive

CCOC(=O)CC(NCc1ccc(/N=C/c2nc3ccc(C(F)(F)F)cc3nc2-c2ccccc2)cc1)C(=O)OCC (configuration not stated)    inactive
CSCC[C@H](NC(=O)[C@H](CC(C)C)NC(=O)[C@@H](Cc1ccccc1)NC(=O)CNC(=O)[C@@H](NC(=O)[C@H](C)NC(=O)[C@H](Cc1c[nH]c2ccccc12)NC(=O)[C@H](CCC(N)=O)NC(=O)[C@H](N)CC(N)=O)C(C)C)C(N)=O    inactive
Cc1ccc(S(=O)(=O)CN2C(=O)C(c3ccccc3)(c3ccccc3)C23OC(c2ccc(Cl)cc2)=CC3=O)cc1 (configuration not stated)    inactive
CC(C)N(C(=O)C12C3(C(=O)C(C)(C)C)C4C5(C#N)C3C1(C(=O)C(C)(C)C)C5C42C(=O)C(C)(C)C)C(C)C (configuration not stated)    inactive
CC(C)(C)OC(=O)NNCC(O)COc1ccccc1 (configuration not stated)    inactive
CC(C)(C)OC(=O)n1c2ccccc2c2c(=O)nc(N3CCCCC3)sc21    inactive
Nc1nc(N)c2cc(Sc3cccc(C(F)(F)F)c3)ccc2n1 [WR-159412]    active
